Each entry gets No if its glass transition temperature stays under 200 °C, and Yes if its glass transition temperature is 200 °C or above.

### Prompt Determine whether this molecule has glass transition temperature no lower than 200 °C: *Oc1ccc(OC(=O)c2ccc(-c3ccc(C(*)=O)cc3)cc2-c2ccccc2)cc1-c1ccccc1 (repeat unit)
### Response No

### Prompt Determine whether this molecule has glass transition temperature no lower than 200 °C: *C(=O)c1ccc2c(c1)C(=O)N(c1cccc(OP(=O)(Oc3cccc(N4C(=O)c5ccc(*)cc5C4=O)c3)c3ccccc3)c1)C2=O (repeat unit)
### Response No

### Prompt Determine whether this molecule has glass transition temperature no lower than 200 °C: *c1ccc(Sc2ccc(Sc3ccc(N4C(=O)c5ccc(Sc6ccc(Sc7ccc(Sc8ccc9c(c8)C(=O)N(*)C9=O)cc7)cc6)cc5C4=O)cc3)s2)cc1 (repeat unit)
### Response No

### Prompt Determine whether this molecule has glass transition temperature no lower than 200 °C: *c1cc(OCCCC)cc(N2C(=O)c3ccc(Oc4ccc5c(c4)C(=O)N(*)C5=O)cc3C2=O)c1 (repeat unit)
### Response Yes

### Prompt Determine whether this molecule has glass transition temperature no lower than 200 °C: *C(=O)Nc1ccc(C(c2ccc(NC(=O)c3ccc4c(c3)C(=O)N(c3c(C)cc(-c5cc(C)c(N6C(=O)c7ccc(*)cc7C6=O)c(C)c5)cc3C)C4=O)cc2)(C(F)(F)F)C(F)(F)F)cc1 (repeat unit)
### Response Yes
